details: in n-propanol, 298.14 K
ENDPOINT: solubility (mole fraction)
Format: numeric value only, no unit, no commentary.

Exercise: Any idea what solubility (mole fraction) was measured for "CS(N)(=O)=O" ?
Solution: 0.0213

###

conditions: in ethanol, 293.14 K
ENDPOINT: solubility (mole fraction)

Exercise: Any idea what solubility (mole fraction) was measured for "CS(N)(=O)=O" ?
Solution: 0.0412

###

conditions: in n-pentanol, 303.06 K
ENDPOINT: solubility (mole fraction)

Exercise: Any idea what solubility (mole fraction) was measured for "CS(N)(=O)=O" ?
Solution: 0.0219

###

conditions: in n-butanol, 303.26 K
ENDPOINT: solubility (mole fraction)
Format: numeric value only, no unit, no commentary.

Exercise: Any idea what solubility (mole fraction) was measured for "CS(N)(=O)=O" ?
Solution: 0.0218
